tested on: lipase; test: Lipase/lipolysis assay (EnzChek Lipase Substrate, quenched BODIPY-fatty acid conjugate) on stored human milk; note: test concentration or dose not given here
Attribute: Lipase (RFU)
quantity.kind: Lipase (RFU)

{"columns": ["compound", "quantity.kind", "observed.result"],
 "data": [
  ["O=C(O)C(O)Cc1ccc(O)cc1 (stereo not drawn) [Hydroxyphenyllactic acid]", "Lipase (RFU)", 914.2115],
  ["CCCCCCCCO [Compound 1-Octanol]", "Lipase (RFU)", 882.5398],
  ["COc1cc2c(cc1O)CC[C@@H]1[C@@H]2CC[C@]2(C)[C@@H](O)CC[C@@H]12 [Compound 2-Methoxyestradiol]", "Lipase (RFU)", 884.0231]
]}
